LC50 values by entry
Assay: Toxicity in brine shrimp larvae
Type: organism-based
Conditions: artemia, in vivo
READOUT_TYPE: LC50

Oc1cccc(CCCCCCCCCCCCc2ccccc2)c1    1.37 µg/mL
CCCCCCCCCCCCCc1cc(O)cc(O)c1C(C)=O [KNEGLOMERATANONE B]    1.92 µg/mL
CC(=O)c1c(O)cc(O)cc1CCCCCCCCc1ccccc1 [KNEGLOMERATANONE A]    0.37 µg/mL
Oc1cc(O)cc(CCCCCCCCCCc2ccccc2)c1    0.47 µg/mL
Oc1cc(O)cc(CCCCCCCCCCCCc2ccccc2)c1    0.33 µg/mL
Oc1cccc(CCCCCCCCCCc2ccccc2)c1    0.45 µg/mL
COc1ccc(-c2coc3cc(O)ccc3c2=O)cc1 [FORMONONETIN]    22.7 µg/mL
O=C(O)c1c(O)cccc1CCCCCCCCCCCCc1ccccc1    1.24 µg/mL
COc1ccc(-c2coc3cc(O)cc(O)c3c2=O)cc1 [BIOCHANIN]    107 µg/mL
CC(=O)c1c(O)cc(O)cc1CCCCCCCCCCc1ccccc1    0.18 µg/mL
Oc1cccc(CCCCCCCCC[C@H](O)c2ccccc2)c1 [KNEGLOMERATANOL]    0.21 µg/mL
CCCCCCCCCCCCCCCc1cc(O)cc(O)c1 [CARDOL]    7.65 µg/mL

---

Each item that follows carries a reported EC50.
System: MCF7
Experiment: Cytotoxicity against human MCF7 cells after 7 days
Format: functional
Conditions: MCF7, 168 h, read-out: ED50 (the source's name)
READOUT_TYPE: EC50 (µg/mL)

COc1ccc(-c2coc3cc(O)ccc3c2=O)cc1 [FORMONONETIN]    1.96
CCCCCCCCCCCCCCCc1cc(O)cc(O)c1 [CARDOL]    2.41
Oc1cccc(CCCCCCCCC[C@H](O)c2ccccc2)c1 [KNEGLOMERATANOL]    2.32

---

Tested on: MCF7
Experiment: Cytotoxicity against human MCF7 cells after 7 days
Type: functional
Settings: MCF7, 168 h, read-out: ED50 (the source's name)
Reported EC50 values for the following compounds.
READOUT_TYPE: EC50 (mg/L)

Oc1cc(O)cc(CCCCCCCCCCc2ccccc2)c1    2.69
CCCCCCCCCCCCCc1cc(O)cc(O)c1C(C)=O    1.12
Oc1cccc(CCCCCCCCCCc2ccccc2)c1    7.76
COc1cccc2c1C(=O)c1c(O)c3c(c(O)c1C2=O)C[C@@](O)(C(=O)CO)C[C@@H]3O[C@H]1C[C@H](N)[C@H](O)[C@H](C)O1    0.147
COc1ccc(-c2coc3cc(O)cc(O)c3c2=O)cc1    5.49
CC(=O)c1c(O)cc(O)cc1CCCCCCCCCCc1ccccc1    2.87
Oc1cccc(CCCCCCCCCCCCc2ccccc2)c1    2.09
Oc1cc(O)cc(CCCCCCCCCCCCc2ccccc2)c1    1.84
CC(=O)c1c(O)cc(O)cc1CCCCCCCCc1ccccc1    3.44
O=C(O)c1c(O)cccc1CCCCCCCCCCCCc1ccccc1    3.06
